Readout kind: melting point

Study these solved cases before continuing.
Compound: O=C(O)COc1ccc2c(c1)Nc1ccccc1S2
Result: 180 to 181 °C

Compound: NC(=O)Oc1ccccc1-c1nc2cc(F)c(OCc3c(Cl)cccc3Cl)cc2s1
Result: 245 to 250 °C

Compound: c1cc(N2CCOCC2)c2c(c1)-n1cnc(-c3nc(C4CC4)no3)c1N1CCN=C21
Result: 217 to 220 °C

Compound: O=[N+]([O-])CC(SC(=S)N1CCCCC1)c1ccccc1 (configuration not stated)
Result: 86 to 90.5 °C

Compound: COC(=O)c1oc2ccc(OC)cc2c1OC(C)C
Result: 55 to 63 °C

Looking for the measured melting point of COc1ccc(NCCCCNC(C)=O)c2c1C(=O)c1ccccc1C2=O , can you help?
151 to 153 °C

====

# maps each entry to its melting point

Recorded results for 5 compounds are shown here.
Compound: COCc1ccc(-c2cn(-c3cc(C(=O)OC)c([N+](=O)[O-])cc3C(F)(F)F)cn2)cc1
melting point: 135 to 137 °C
//
Compound: Cc1c(Br)cc2c(c1C)OCC2c1ccc(C(C)C)cc1 (stereo unspecified)
melting point: 114 to 115 °C
//
Compound: Cc1coc2c1C(=O)CC(c1ccc(F)cc1F)C2 (stereo unspecified)
melting point: 101 to 102 °C
//
Compound: Cc1ccc(S(=O)(=O)OCC2COc3ccc4nc(C)c(C)nc4c3O2)cc1 (stereo unspecified)
melting point: 153 to 155 °C
//
Compound: CCCCc1c(CO)nc2ccccc2c1OCc1ccc(-c2ccccc2C(=O)O)cc1
melting point: 174 °C

Query: melting point; subject: CCCn1nc2c(N)nc3ccccc3c2c1CC(C)(C)NC(=O)NC(C)C
190 to 191 °C

What would you report for CCCC1=C([N+](=O)[O-])C(c2ccccc2[N+](=O)[O-])c2c[nH]nc2N1 (stereo unspecified) ?
204 °C

Request: COc1ccc(N=C(NC(=O)Nc2ccc(-c3ncn(-c4ccc(C(F)(F)F)cc4)n3)cc2)SCOC(=O)C(C)C)c(C)c1
160 to 164 °C

Do the same for CC(C)(C)COc1ccc(NC(=O)c2cc3ccccc3s2)cc1C#N please
227 °C

Param item: Cc1ccc(Br)c(Cl)c1NS(=O)(=O)c1ccccc1C(=O)O
238 to 242 °C

Next up: CCOC(=O)C1=Cc2cc(Cl)ccc2N(C)C1C(F)(F)F (stereo unspecified)
118 to 120 °C

====

melting point for assorted molecules

Field request: melting point | item: OC1CSC(Oc2ccc(-c3cncc(F)c3)nc2)C(O)C1O (stereo not given)
207 to 217 °C

Item: O=C(O)[C@H](Cc1ccc(OCc2ccccc2)cc1)NS(=O)(=O)c1ccc(F)cc1
138 to 139 °C

Record: CCOC(=O)C(Oc1cccc2c1ccn2C(=O)OCc1ccccc1)C(=O)OCC
77 to 78 °C

For COCCOc1ccc(COC(=O)NS(=O)(=O)NCC(C)C)c(Oc2ncc(C(F)(F)F)cc2Cl)c1 then?
160 to 161 °C

What about this molecule? CS(=O)c1ccc2nc3sc(C(=O)O)cn3c(=O)c2c1 (stereo not given)
243 to 244 °C

Consider next the molecule CC(=O)Nc1ccc(C(C)=C(Cl)Cl)cc1 in the same way.
164 to 166 °C

Continue with COC(=O)c1ccc(OC(=O)c2cc(C)c3c(c2C)C2(CCS3(=O)=O)OCCO2)cc1
206 to 208 °C

Item: O=C1CN=C(c2ccc(O)cc2)c2cc(Cl)ccc2N1
271 to 272 °C

Same lookup for CCOC(=O)c1ccc(-n2ccnc2)cc1 , please.
100 °C

Now consider CC(C)NCc1ccc(Cn2ccc(OCc3ccc(F)cc3F)c(Cl)c2=O)cc1 .
146 to 151 °C

====

Readout kind: melting point

Compound: O=C(C=Cc1ccc2c(c1)OCO2)C1C(=O)CCC1=O
Result: 181 to 182 °C
//
Compound: COc1ccc2c(c1)CCC1C2C(O)CC2(C)C1CC1OCCOC12 (centres undefined)
Result: 125 to 126 °C
//
Compound: CC(C#N)CCC(=O)O (centres undefined)
Result: 31.9 to 32.6 °C

Reported melting point, compound COc1cc2c(Nc3ccc(Cl)cc3F)ncnc2cc1OCCS(C)(=O)=O : ____
227 to 230 °C

====

Listing of recorded melting point by entry.

melting point for Cc1ccc(S(=O)(=O)C(CCl)Sc2cccc(C)c2)cc1 (stereo not given) ?
80 to 97 °C

Try the molecule COc1ccc(-c2ccc(-c3ccc(OC)cc3)c(-c3ccc(OCc4ccccc4)cc3)n2)cc1
99 to 102 °C

Also, CC1(C)SCN(C(=O)[C@@H](O)[C@H](Cc2ccccc2)NC(=O)O[C@H]2CCOC2)[C@@H]1C(=O)N[C@H]1CCCc2ccccc21 please.
103 to 105 °C

Input Cc1noc(NS(=O)(=O)c2ccccc2-c2ccc(-c3ncco3)cc2Cn2c(=O)oc3ccccc32)c1C
130 to 137 °C

Next molecule up: COCC(Oc1ccc(Nc2ccc(C(F)(F)F)cc2[N+](=O)[O-])cc1)C(=O)OC (stereo not given)
57 °C

====

Readout kind: melting point

Below, each entry is followed by its recorded melting point result.
Compound: CCOC(=O)c1ccccc1NC(=O)NCC1(c2ccccc2)CCCCC1
Readout kind: melting point
Result: 99 to 101 °C
--
Compound: CC(C)(C)CC(C)(C)Nc1nc(NC(C)(C)C(C)(C)C)nc(N2CC3CCC(CC3)C2)n1
Readout kind: melting point
Result: 98 to 102 °C
--
Compound: CC(C)=CCn1c(=O)sc2c(=O)[nH]c(N)nc21
Readout kind: melting point
Result: 290 to 292 °C
--
Compound: CCCc1nc2ccc(C(=O)c3ccccc3)cc2n1Cc1ccc(C(=O)O)cc1
Readout kind: melting point
Result: 295 to 296 °C
--
Compound: O=C(N1CCc2ccc(Cl)c(O)c2CC1)C(F)(F)F
Readout kind: melting point
Result: 133 to 134 °C

Consider the compound CC(Nc1ccc(Oc2ccccc2)cc1)C(=O)O (stereo not given) and give its measured melting point.
160 °C

Param item: Cc1ccccc1N1CNC(=O)C12CCN(C(=O)c1cc(C(F)(F)F)cc(C(F)(F)F)c1)CC2
164 to 168 °C

Then what about the compound CNC(=O)c1ccc(C=CC(=O)NCC(=O)N(C)c2ccc(C)c(COc3cccc4c3nc(SC)n4C)c2C)cc1 ?
224 to 225 °C

Cool, now CN1CCC(C(=O)NO)(S(=O)(=O)c2ccc(Oc3ccc(Cl)cc3)cc2)CC1
52 °C

Also check COc1ccc(-c2cc(=S)n(Cc3ccc(Cl)cc3Cl)nc2-c2ccc(OC)cc2)cc1
170 °C

====

Here, each record is paired with measured melting point data.

Solved entries (count: 10):
Molecule: O=C(O)CCCCC=Cc1cccc(Cc2ccccc2)c1
melting point: 68 °C

Molecule: C[C@H]1Oc2cccc(F)c2N(C)C(=O)[C@H]1NC(=O)OC(C)(C)C
melting point: 130 to 138 °C

Molecule: CCN(c1ccc(C(=O)O)cc1)c1cc2c3c(c1)CCCC3CCC2
melting point: 284 to 285 °C

Molecule: CN(Cc1ccccc1)Cc1c(-c2ccc(NC(=O)NO)cc2)sc2c1c(=O)n(-c1ccccc1)c(=O)n2Cc1c(F)cccc1F
melting point: 164 to 165 °C

Molecule: Cc1ccccc1NNC(N)=S
melting point: 158 to 160 °C

Molecule: CC(=O)N1CCN=C1Nc1cc(C)nn1Cc1ccccc1
melting point: 148 to 149 °C

Molecule: COc1cc(OC)nc(NC(=O)NS(=O)(=O)c2cc(Br)cc3c2OS(=O)(=O)C=C3)n1
melting point: 204 to 209 °C

Molecule: COC(=O)CCn1c(=O)n2cc(C)cc2c2ccccc21
melting point: 89 to 91 °C

Molecule: Clc1ccc(-c2nc(COc3ccc(CCCn4ccnc4)cc3)co2)s1
melting point: 77 to 78 °C

Molecule: Cc1cc(C(=O)c2ccccc2)c(OCCCCCCCCO)cc1N(C)C
melting point: 56.9 °C

Proceeding to the next molecule to report its melting point.
Need melting point, item CCCCCCCCC1=C(Cl)C(=O)c2ccccc2C1=O
69 to 70 °C

====

Measured melting point values are reported for all entries that follow.

Some entries whose results are on file:
Compound: CCOCCCC1(O)c2ccccc2C=Cc2ccc(I)cc21 (stereo not drawn)
melting point: 95 to 105 °C

Compound: CC12CCC(=O)C=C1CCC1C2CCC2(C)C1CCC2(O)C(N)=O (stereo not drawn)
melting point: 233 to 234 °C

Next item in the queue.
Can you share its melting point? I mean this compound: O=C(NN=Cc1ccccc1)c1ccc(C(F)(F)F)cc1
216 to 217 °C

====

Readout kind: melting point

Compound: CCC(OC(C)=O)c1ccc(Cl)c2nc3n(c12)CCCN3c1ccc(OC)cc1Cl (centres undefined)
melting point: 178 to 180 °C

Compound: Clc1ccccc1OCC1(c2ccccc2)CCN(Cc2ccccc2)CCO1 (centres undefined)
melting point: 114 to 115 °C

Given the entry CN(Cc1ccc(NC(=O)C2=Cc3cc(-c4cccc(C(F)(F)F)c4)ccc3S(=O)(=O)CC2)cc1)C1CCOCC1 , report its measured melting point.
236 to 238 °C

Queued: Oc1ccc(CCN2CCC(Cc3nc4c(O)ncnc4n3Cc3ccc(F)cc3)CC2)cc1
216 °C

Just for reference, a melting point compilation (Tetko et al.; mined from patent text by program, amines drawn as free bases though some values may be those of a salt) is where these values come from.
